Listed compounds paired with reported %Inh
# System: NEK6
# conditionParameters: concentration: 1 μM, replicates: in singlicate; n = 1
# number only, unit % dropped from output

Solved entries:
[
  {
    "compound": "O=C(Nc1cccc(-c2nn3ccccc3c2-c2ccnc(Nc3cccc(F)c3)n2)c1)c1c(F)ccc(F)c1Cl [GSK357952]",
    "targetOrTestSystem": "NEK6",
    "unitInfo": "%",
    "quantitativeReadout": 0
  },
  {
    "compound": "CSc1cccc2c(-c3ccncn3)c(-c3ccc(F)cc3)nn12 [GW514786]",
    "targetOrTestSystem": "NEK6",
    "unitInfo": "%",
    "quantitativeReadout": 0
  },
  {
    "compound": "Cl.Cl.NCC(NCc1ccc(-c2ccnc3[nH]ccc23)s1)c1ccccc1 (stereo not drawn) [GSK1321565]",
    "targetOrTestSystem": "NEK6",
    "unitInfo": "%",
    "quantitativeReadout": 0
  },
  {
    "compound": "O=C(Nc1cccc(Oc2ccc3nc(NC(=O)C4CC4)cn3n2)c1)c1ccccc1C(F)(F)F",
    "targetOrTestSystem": "NEK6",
    "unitInfo": "%",
    "quantitativeReadout": 0
  }
]

Query block: // fetch %Inh; item: Nc1ncnc2c1nc(-c1ccccc1)n2-c1ccccc1 [SKF-97293] ; system: NEK6
Result block: 15

Query block: Fill in: %Inh on NEK6, entry O=C(Nc1cccc(-c2nn3ncccc3c2-c2ccnc(Nc3ccccc3)n2)c1)c1c(F)cccc1F [GSK198271]
Result block: 0

Query block: Please report the measured %Inh for CN(C)Cc1ccc(-c2ccc3c(Nc4ccc(Oc5ccccn5)cc4)ccnc3c2)o1 [GW567148] tested on NEK6.
Result block: 0

Query block: Give %Inh for Cl.c1ccc(-c2ccc3c(Nc4ccc5[nH]ccc5c4)ccnc3c2)nc1 [GW440138] tested on NEK6.
Result block: 0

Query block: With NEK6 as the test system, provide measured %Inh for this compound: Cn1cc(-c2ccc3c(c2)CCN3C(=O)Cc2cccc(F)c2)c2c(N)ncnc21 [GSK2603358]
Result block: 0

Query block: Give measured %Inh for `Cc1cccc(NC(=O)Nc2ccc(Oc3ncnc4ccn(C)c34)cc2)c1` (NEK6).
Result block: 16

Query block: Provide the reported %Inh (system: NEK6) for O=C(Nc1cccc(-c2nn3ccccc3c2-c2ccnc(Nc3cccc(C(F)(F)F)c3)n2)c1)c1c(F)cccc1F [GSK292658]
Result block: 0

Query block: Write down the reported %Inh (system: NEK6) of Oc1cc(Nc2ccnc3cc(I)ccc23)ccc1F [GW552771]
Result block: 0

Query block: Under NEK6: report %Inh of O=C(Nc1ccccc1F)NC1CCN(c2ccnc(Nc3ccc(F)cc3)n2)CC1 [GSK1379800] .
Result block: 0

Query block: # assay system NEK6: give %Inh of `Cn1cc(-c2[nH]c3cc(NC(=O)[C@H](N)C4CCCCC4)cc4c3c2C=NNC4=O)cn1`
Result block: 2

Query block: Specify %Inh for COC(=O)Nc1nc2ccc(Oc3ccc(NC(=O)Nc4cc(C(F)(F)F)ccc4F)cc3)cc2n1C.Cl [GW692089] , system NEK6.
Result block: 0

Query block: Output reported %Inh of the compound `Cc1ccc(C(=O)N2CC[C@@H](O)C2)cc1-n1c(C)cc(OCc2ccc(F)cc2F)c(Br)c1=O` on NEK6.
Result block: 0

Query block: For NEK6, give %Inh of the listed compound: COc1ccc(CNC(=O)NC2CCN(c3ccnc(Nc4ccc(F)cc4)n3)CC2)cc1 [GSK1379788]
Result block: 0

Query block: Specify %Inh for COc1ccc(Nc2nccc(NCCNC(=O)c3cc4ccccc4s3)n2)cc1 [GSK1379896] , system NEK6.
Result block: 0

Query block: Tell me %Inh of Cc1ccc(S(=O)(=O)Nc2ccc(Nc3nccc(Nc4cccc5[nH]ncc45)n3)cc2)cc1 [GSK581271] when tested on NEK6.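 Also: KINOMEscan kinase panel screen.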
Result block: 0

Query block: Please report %Inh with NEK6 for item c1ccc(Oc2ccc(Nc3ccnc4cc(-c5ccc(CNCCN6CCOCC6)o5)ccc34)cc2)nc1 [GW567145] .
Result block: 0

Query block: Look up NEK6 data: %Inh of CCn1c(-c2nonc2N)nc2c(C#CC(C)(C)O)nc(OC[C@H](N)c3ccccc3)cc21 [GSK943949] , then report it.
Result block: 14

Query block: Give NEK6 %Inh for the following compound: Cc1ccc(F)c(C(=O)Nc2cccc(-c3nn4ccccc4c3-c3ccnc(Nc4cccc(F)c4)n3)c2)c1F [GSK361061]
Result block: 9

Query block: Give %Inh only, for Cc1cccc(Nc2nc(N[C@H]3CCNC3)ncc2C(N)=O)c1.Cl [GSK2197149] , using NEK6 data.
Result block: 0

Query block: Using NEK6 as the test system, report measured %Inh of `CC(=O)Nc1nc2cnc(Nc3cc(NC(=O)c4cccc(C5(C#N)CC5)c4Cl)ccc3C)nc2s1` .
Result block: 4

Values from paper PMC5540273
